# System: RS4;11 cells
# assay-details: RS4;11 cell viability assay (CellTiter Glo);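 note: acute lymphoblastic leukemia line RS4,11, EC50 derived from percentage of viable cells after treatment relative to untreated controls, cell killing taken as a measure of Bcl-2 inhibition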
# Format: cell-based, human
# run-parameters: Homo sapiens, RS4-11, 48 h, 50,000 cells per well, 10% human serum, 48 hours; read-out: RS4; 11 EC50 Values
pEC50: −log10 of the molar value.
Note: every record was labeled by where its pEC50 sits among bucket 1: < 7; bucket 2: ≥ 7 and < 8; bucket 3: ≥ 8

Which bin, given its pEC50, does COCCNc1ccc(S(=O)(=O)NC(=O)c2ccc(N3CCN(CC4=C(c5ccc(Cl)cc5)CC(C)(C)CC4)CC3)cc2Oc2cnc3[nH]ccc3c2)cc1[N+](=O)[O-] [Example 10] occupy?
bucket 2

// next record CC1(C)CCC(CN2CCN(c3ccc(C(=O)NS(=O)(=O)c4cnc(OCC5(F)CCN(CC(F)F)CC5)c(Cl)c4)c(Oc4cnc5[nH]ccc5c4)c3)CC2)=C(c2ccc(Cl)cc2)C1 [Example 285]
bucket 2

// next record CC1(C)CCC(CN2CCN(c3ccc(C(=O)NS(=O)(=O)c4ccc(NC5CN(C6COC6)C5)c([N+](=O)[O-])c4)c(Oc4cnc5[nH]ccc5c4)c3)CC2)=C(c2ccc(Cl)cc2)C1 [Example 256]
bucket 2

// next record CC1(C)CCC(CN2CCN(c3ccc(C(=O)NS(=O)(=O)c4cnc(N[C@@H]5CCN(C(CF)CF)C5)c(Cl)c4)c(Oc4cnc5[nH]ccc5c4)c3)CC2)=C(c2ccc(Cl)cc2)C1 [Example 231]
bucket 1

// next record CCN1CCOCC1COc1ccc(S(=O)(=O)NC(=O)c2ccc(N3CCN(CC4=C(c5ccc(Cl)cc5)CC(C)(C)CC4)CC3)cc2Oc2cnc3[nH]ccc3c2)cc1[N+](=O)[O-] (stereo not shown) [Example 103]
bucket 2

// next record CC1(C)CCC(CN2CCN(c3ccc(C(=O)NS(=O)(=O)c4ccc(NCC5CCOCC5)c(S(=O)(=O)C(F)(F)F)c4)c(Oc4cnc5[nH]ccc5c4)c3)CC2)=C(c2ccc(Cl)cc2)C1 [Example 17]
bucket 1

// next record CN1CCC(CNc2ccc(S(=O)(=O)NC(=O)c3ccc(N4CCN(CC5=C(c6ccc(Cl)cc6)CC(C)(C)CC5)CC4)cc3Oc3cnc4[nH]ccc4c3)cc2[N+](=O)[O-])CC1 [Example 65]
bucket 3

// next record CC1(C)CCC(CN2CCN(c3ccc(C(=O)NS(=O)(=O)c4ccc(NCC5CCOCC5)c(S(F)(F)(F)(F)F)c4)c(Oc4cnc5[nH]ccc5c4)c3)CC2)=C(c2ccc(Cl)cc2)C1 [Example 233]
bucket 1

// next record CC1(C)CCC(CN2CCN(c3ccc(C(=O)NS(=O)(=O)c4ccc(NC5CCN(C6CCOC(C)(C)C6)CC5)c([N+](=O)[O-])c4)c(Oc4cnc5[nH]ccc5c4)c3)CC2)=C(c2ccc(Cl)cc2)C1 (stereo not shown) [Example 141]
bucket 2

// next record CC1(C)CCC(CN2CCN(c3ccc(C(=O)NS(=O)(=O)c4ccc(OC[C@H]5CC[C@H](N6CCOCC6)CC5)c(Cl)c4)c(Oc4cnc5[nH]ccc5c4)c3)CC2)=C(c2ccc(Cl)cc2)C1 [Example 303]
bucket 2

// next record CC1(C)CCC(CN2CCN(c3ccc(C(=O)NS(=O)(=O)c4ccc(NCC5CCC6(CC5)COC6)c([N+](=O)[O-])c4)c(Oc4cnc5[nH]ccc5c4)c3)CC2)=C(c2ccc(Cl)cc2)C1 [Example 365]
bucket 3

// next record O=C(NS(=O)(=O)c1ccc(NC[C@H]2CC[C@H](O)CC2)c([N+](=O)[O-])c1)c1ccc(N2CCN(CC3=C(c4ccc(Cl)cc4)CCC(F)(F)C3)CC2)cc1Oc1cnc2[nH]ccc2c1 [Example 324]
bucket 3

// next record CC1(C)CCC(CN2CCN(c3ccc(C(=O)NS(=O)(=O)c4cc(F)c(NCC5CCOCC5)c(Cl)c4)c(Oc4cnc5[nH]ccc5c4)c3)CC2)=C(c2ccc(Cl)cc2)C1 [Example 86]
bucket 1
